# study.target: AChE (Rattus norvegicus)
# Construct: The brain and serum of Sprague–Dawley rat was used as the resource of AChE and BuChE, respectively; from tissue; host or cells: Sprague-Dawley rat brain
# Sequence (P37136 32-614): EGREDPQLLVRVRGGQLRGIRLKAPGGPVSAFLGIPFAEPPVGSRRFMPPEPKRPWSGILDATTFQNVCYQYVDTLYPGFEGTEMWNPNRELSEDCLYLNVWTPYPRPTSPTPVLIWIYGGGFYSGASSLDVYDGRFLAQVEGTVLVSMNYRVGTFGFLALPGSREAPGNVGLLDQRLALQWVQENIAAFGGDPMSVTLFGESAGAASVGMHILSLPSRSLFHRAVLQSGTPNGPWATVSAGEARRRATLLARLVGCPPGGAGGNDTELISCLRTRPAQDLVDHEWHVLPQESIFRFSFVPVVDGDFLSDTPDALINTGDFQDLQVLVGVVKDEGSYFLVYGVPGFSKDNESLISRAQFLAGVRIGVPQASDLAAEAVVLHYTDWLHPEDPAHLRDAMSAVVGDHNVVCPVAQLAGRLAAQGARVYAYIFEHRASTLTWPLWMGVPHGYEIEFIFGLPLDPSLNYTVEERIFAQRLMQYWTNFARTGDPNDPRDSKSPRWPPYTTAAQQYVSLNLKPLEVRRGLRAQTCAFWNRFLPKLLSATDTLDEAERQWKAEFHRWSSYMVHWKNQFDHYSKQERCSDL
# assay.protocol: biochemical
# Type: biochemical
# measurement.parameters: ratio IC50 (BuChE)/IC50 (AChE)
quantity.kind: Selectivity for AChE, IC50 (BuChE)/IC50 (AChE)
One number for each entry.

{"molecule": "CN(C)CCOc1ccc(C(=O)/C=C/c2ccc(Cl)cc2)cc1 [Compound 4c]", "study.target": "AChE (Rattus norvegicus)", "numeric.readout": 28.1}
{"molecule": "CCN(CC)CCOc1ccc(C(=O)/C=C/c2ccccc2Cl)cc1 [Compound 4d]", "study.target": "AChE (Rattus norvegicus)", "numeric.readout": 11.8}
{"molecule": "CCN(CC)CCOc1ccc(C(=O)/C=C/c2ccc(Cl)cc2)cc1 [Compound 4f]", "study.target": "AChE (Rattus norvegicus)", "numeric.readout": 26.7}
{"molecule": "CN(C)CCOc1ccc(C(=O)/C=C/c2ccccc2Cl)cc1 [Compound 4a]", "study.target": "AChE (Rattus norvegicus)", "numeric.readout": 19.5}

Let us move to another entry and its Selectivity for AChE, IC50 (BuChE)/IC50 (AChE).
Which Selectivity for AChE, IC50 (BuChE)/IC50 (AChE) is reported with AChE (Rattus norvegicus) for this entry: CN(C)CCOc1ccc(C(=O)/C=C/c2cccc(Cl)c2)cc1 [Compound 4b] ?
8.5

// provenance: paper PMC6009910
